- targetOrSystem: UAP56 (Homo sapiens, UniProt Q13838 1-428)
- assaySummary: GCI; 1 mM ATP; RNA immobilized; GCI: 25 mM HEPES pH 7.9, 50 mM KCl, 1 mM MgCl2, 1 mM TCEP, 1 mM ATP, 25 C; AdML pull-down: 20 mM HEPES pH 7.9, 100 mM KCl, 2 mM MgCl2, 5% glycerol, 0.1% Igepal, 1 mM AMP-PNP, RT; unclamping: same with 40 mM KCl, 500 mM KCl washes
- testConditions: protein: recombinant; otherwise unlabelled; single strand
recordedMetric: pKd
Quick note: pKd values are minus log10 of concentrations in mol/L.

### Prompt Request the reported pKd associated with UUUUUUUUUUUUUUU (ssRNA) [15U RNA]
### Response 6.11
